Tested on: SF-539 CNS
Experiment: NCI-60 one-dose screen, 48 h (100 = growth as untreated, 0 = no growth, -100 = all killed)
Conditions: 10 µM
The panel holds about 83,000 compounds, 20% with a hit somewhere; the sample as a whole holds those more often.
growth reference
Answer with a number only, understood to be in %.

// worked examples, growth included
In [3]: df
Out[3]:
                                 smiles_str  experimental_target  reported_endpoint  units_of_measure  reported
0  N#Cc1c(NC(=O)c2ccc(C(F)(F)F)c(Cl)c2)sc2c1CCC(=O)C2           SF-539 CNS             growth                 %     -87.6
1          Cc1cc2nc3c4ccccc4n(CCO)c3nc2cc1C           SF-539 CNS             growth                 %      37.1
2  Cn1cc(-c2cc(N)n3nc(-c4c[nH]c5ccc(Br)cc45)cc3n2)c2cccnc21           SF-539 CNS             growth                 %     -97.7
3  CN(C)c1ccc(/C=C/c2nc3ccccc3c(=O)n2CC(=O)Nc2ccccc2)cc1           SF-539 CNS             growth                 %     -26.8

For the next question, use this compound.
Please report the recorded growth for CC(C)CCSc1nc(NC2CC2)c(C#N)c(-c2ccc(C(C)C)cc2)n1 . 101
